- Format: cell-based, human
- settings: human
Square brackets hold non-standard residues; d marks the D form. Peptide text beside a SMILES is read from it. N(1-naphthylmethyl)Gly = O=C(O)CNCc1cccc2ccccc12; d2Nal = N[C@H](Cc1ccc2ccccc2c1)C(=O)O; Nphe = O=C(O)CNCc1ccccc1; NBuGly = CCCCNCC(=O)O
Items are presented alongside their recorded hemolysis at 1 h, 150 µM.

CCCCN(CC(=O)N[C@@H](CCCCN)C(=O)N[C@@H](CCCCN)C(N)=O)C(=O)[C@H](CCCCN)NC(=O)CN(Cc1cccc2ccccc12)C(=O)CN(Cc1ccccc1)C(=O)CNCc1cccc2ccccc12 [Compound 5] (H-[N(1-naphthylmethyl)Gly][Nphe][N(1-naphthylmethyl)Gly]K[NBuGly]KK-NH2; N-terminus assumed) = < 8%

# input GET /values?readout=hemolysis at 1 h, 150 µM&item= CC(C)C[C@@H](NC(=O)[C@@H](Cc1ccc2ccccc2c1)NC(=O)[C@@H](Cc1ccccc1)NC(=O)[C@H](N)Cc1ccc2ccccc2c1)C(=O)N[C@@H](CCCCN)C(=O)N[C@@H](CCCCN)C(=O)N[C@@H](CCCCN)C(N)=O [Compound 19] (H-[d2Nal][dF][d2Nal][dL]KKK-NH2; N-terminus assumed)
# output < 8%

# input Another compound to check: CC(C)C[C@@H](NC(=O)[C@H](CCCCN)NC(=O)[C@@H](Cc1ccc2ccccc2c1)NC(=O)[C@@H](Cc1ccccc1)NC(=O)[C@H](N)Cc1ccc2ccccc2c1)C(=O)N[C@@H](CCCCN)C(=O)N[C@@H](CCCCN)C(N)=O [Compound 18] (H-[d2Nal][dF][d2Nal]K[dL]KK-NH2; N-terminus assumed)
# output < 8%
